# EXPERIMENTAL_TARGET: DGI-2 (Homo sapiens)
# Construct: encompassed the entire DGI-2 open reading frame (ORF); His-tag of vector pIVEX2.3-MCS (inferred from the vector and from the reverse primer lacking a stop codon); made in house; host or cells: cell-free in vitro translation (Rapid Translation System RTS, Roche; E. coli lysate)
# Sequence (Q15004 1-111): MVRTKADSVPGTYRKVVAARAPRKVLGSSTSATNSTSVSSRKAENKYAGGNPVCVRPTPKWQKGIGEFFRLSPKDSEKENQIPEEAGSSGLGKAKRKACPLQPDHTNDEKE
# MEASUREMENT_PROTOCOL: ELISA analysis of phage on DGI-2 polypeptide (specific binding)
# SETUP_CONDITIONS: binding to DGI-2 polypeptide (specific binding); phage ELISA units read at 405 nm
MEASURED_PROPERTY: DGI-2 (OD)

{"columns": ["SUBSTANCE", "MEASURED_PROPERTY", "MEASURE_UNIT", "RECORDED_NUMBER"],
 "data": [
  ["RGSLLLTLPRLSGAVGTAYG (DGI-2-20F-PP-B3; listed as Escherichia coli)", "DGI-2 (OD)", "OD", 3.4],
  ["EGQRVVFLFGALVAGLCWRDR (DGI-2-20F-PP-F3; listed as Escherichia coli)", "DGI-2 (OD)", "OD", 2.6],
  ["LGPAHPHGRVCRVSSS#S (LGPAHPHGRVCRVSSSS; DGI-2-20F-PP-B9; listed as Escherichia coli)", "DGI-2 (OD)", "OD", 1.9],
  ["SWACGLLWPGECGSQVARRG (DGI-2-20R-3-D127; listed as Escherichia coli)", "DGI-2 (OD)", "OD", 6.7],
  ["WGCVFRQWASGSGAGCARRH (DGI-2-20R-3-D9; listed as Escherichia coli)", "DGI-2 (OD)", "OD", 6.7],
  ["GLLFTSSPYQCFWVHCTLTMSPLSVLGDLSSTIGRMRASR (DGI-2-40F-3-C52; listed as Escherichia coli)", "DGI-2 (OD)", "OD", 1.0],
  ["QMIFSKGNWLAHPEGGVALGLSRESQLFRSCREFGYCMGPM [DGI-2-40F-3-C6]", "DGI-2 (OD)", "OD", 2.3],
  ["GQISLAGVAVCSSERMLLAFSSRVFLPGLKVPVTTSQRGS (DGI-2-40F-3-A8; listed as Escherichia coli)", "DGI-2 (OD)", "OD", 0.8],
  ["YAMSSRECGIRNSGLILSMW (DGI-2-20F-PP-C9; listed as Escherichia coli)", "DGI-2 (OD)", "OD", 3.5],
  ["VSFAHDWGRWWYQWEVG (DGI-2-20R-4-G22; listed as Escherichia coli)", "DGI-2 (OD)", "OD", 7.9],
  ["YTPASILTGFQRGYEGAGNG (DGI-2-20R-4-G7; listed as Escherichia coli)", "DGI-2 (OD)", "OD", 4.7],
  ["DQRVVGSGWFERLRNWYDRA (DGI-2-20R-4-G99; listed as Escherichia coli)", "DGI-2 (OD)", "OD", 7.5],
  ["LGRTFVWGTCLHLSVSRFGH (DGI-2-20F-PP-C3; listed as Escherichia coli)", "DGI-2 (OD)", "OD", 5.3],
  ["GWGCSVPGILCVGGHRQGGG (DGI-2-20R-3-B11; listed as Escherichia coli)", "DGI-2 (OD)", "OD", 5.9],
  ["MGQGFHYNRQPYMSHQCYAFTFSTPFLDGDRIPHGVSRGL (DGI-2-40F-3-D1; listed as Escherichia coli)", "DGI-2 (OD)", "OD", 0.8],
  ["MSTLQGPGHLFQMLRRASLG (DGI-2-20R-4-H12; listed as Escherichia coli)", "DGI-2 (OD)", "OD", 3.7]
]}
